Target: Cannabinoid receptor 1 (Rattus norvegicus) (UniProt P20272)
Sequence (P20272 whole entry): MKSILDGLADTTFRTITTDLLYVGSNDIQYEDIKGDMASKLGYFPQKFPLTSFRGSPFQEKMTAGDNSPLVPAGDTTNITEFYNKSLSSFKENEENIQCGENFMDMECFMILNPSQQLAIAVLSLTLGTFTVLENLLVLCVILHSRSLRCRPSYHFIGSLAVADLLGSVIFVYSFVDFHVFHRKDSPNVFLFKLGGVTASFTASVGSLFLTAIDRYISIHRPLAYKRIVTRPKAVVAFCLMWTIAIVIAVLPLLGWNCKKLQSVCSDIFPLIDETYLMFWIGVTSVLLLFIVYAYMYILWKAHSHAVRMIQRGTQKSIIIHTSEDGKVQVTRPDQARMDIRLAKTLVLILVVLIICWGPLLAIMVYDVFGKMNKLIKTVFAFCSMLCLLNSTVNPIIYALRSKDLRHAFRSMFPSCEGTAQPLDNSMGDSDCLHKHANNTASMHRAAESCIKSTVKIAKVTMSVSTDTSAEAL
Test: Agonist activity against rat CB1 receptor expressed in superior cervical ganglion neurons assessed as increase in calcium ion current at 1 uM relative to control
Assay type: functional, tissue-based
REPORTED METRIC: Activity (%)
Note: unit % is implicit; provide only the numeric part.

Cc1c(C(=O)NC2CCCCC2)nn(-c2ccc(Cl)cc2Cl)c1-c1ccc(Cl)cc1	35.2
Cc1c(/C=C/N2CCCCC2)nn(-c2ccc(Cl)cc2Cl)c1-c1ccc(Cl)cc1	3.2
Cc1c(C(=O)c2cccc3ccccc23)c2cccc3c2n1[C@H](CN1CCOCC1)CO3	47.1
Cc1c(C(=O)NN2CCCCC2)nn(-c2ccc(Cl)cc2Cl)c1-c1ccc(Cl)cc1	46.6
Cc1c(/C=N/N2CCCCC2)nn(-c2ccc(Cl)cc2Cl)c1-c1ccc(Cl)cc1	11.5
Cc1c(C(=O)N(C)C2CCCCC2)nn(-c2ccc(Cl)cc2Cl)c1-c1ccc(Cl)cc1	26.1

What is its Activity for Cannabinoid receptor 1 (Rattus norvegicus) (UniProt P20272)? Entry: Cc1c(/C=C/C2CCCCC2)nn(-c2ccc(Cl)cc2Cl)c1-c1ccc(Cl)cc1 8.6

====

Parameter Activity: see the listing below.
Target: Cannabinoid receptor 1 (Rattus norvegicus)
Experiment: Antagonist activity against rat CB1 receptor expressed in superior cervical ganglion neurons assessed as block of WIN-55212-2-elicited calcium ion current inhibition at 1 uM relative to control
Type: functional, tissue-based
Set-up: scale not given: the % may be the effect or the level left
Note: unit % is implicit; provide only the numeric part.

Known Activity results, listed for orientation:
Cc1c(C(=O)N(C)C2CCCCC2)nn(-c2ccc(Cl)cc2Cl)c1-c1ccc(Cl)cc1	-4.5
Cc1c(C(=O)NN2CCCCC2)nn(-c2ccc(Cl)cc2Cl)c1-c1ccc(Cl)cc1	-4.8
Cc1c(C(=O)NC2CCCCC2)nn(-c2ccc(Cl)cc2Cl)c1-c1ccc(Cl)cc1	-3.8
Cc1c(/C=C/N2CCCCC2)nn(-c2ccc(Cl)cc2Cl)c1-c1ccc(Cl)cc1	-2.5
Cc1c(/C=N/N2CCCCC2)nn(-c2ccc(Cl)cc2Cl)c1-c1ccc(Cl)cc1	2.6

// query Activity value for entry Cc1c(/C=C/C2CCCCC2)nn(-c2ccc(Cl)cc2Cl)c1-c1ccc(Cl)cc1 28.1

====

Target: Cannabinoid receptor 1 (Homo sapiens, UniProt P21554)
Sequence (P21554 whole entry): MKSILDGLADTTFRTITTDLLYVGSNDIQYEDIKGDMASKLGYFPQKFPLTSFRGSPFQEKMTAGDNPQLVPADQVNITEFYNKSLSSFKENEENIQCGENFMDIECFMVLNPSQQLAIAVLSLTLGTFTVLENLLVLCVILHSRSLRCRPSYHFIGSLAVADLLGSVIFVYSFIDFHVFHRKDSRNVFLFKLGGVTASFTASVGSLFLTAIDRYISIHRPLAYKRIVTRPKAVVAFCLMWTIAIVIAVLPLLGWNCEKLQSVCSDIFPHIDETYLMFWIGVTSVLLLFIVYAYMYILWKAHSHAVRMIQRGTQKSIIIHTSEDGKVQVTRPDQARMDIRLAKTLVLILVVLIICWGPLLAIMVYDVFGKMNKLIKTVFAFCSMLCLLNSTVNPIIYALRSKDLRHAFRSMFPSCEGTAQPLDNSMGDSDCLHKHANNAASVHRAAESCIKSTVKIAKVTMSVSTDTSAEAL
Assay: biochemical
Type: cell-based, HEK293
REPORTED METRIC: pKi
The meaning of pKi here: minus log10 of the concentration in molar units.

Cc1c(C(=O)NC2CCCCC2)nn(-c2ccc(Cl)cc2Cl)c1-c1ccc(Cl)cc1	8.30

// query pKi value for entry Cc1c(/C=N/N2CCCCC2)nn(-c2ccc(Cl)cc2Cl)c1-c1ccc(Cl)cc1 7.24

Repeat for the following molecule: Cc1c(/C=C/N2CCCCC2)nn(-c2ccc(Cl)cc2Cl)c1-c1ccc(Cl)cc1 6.59

Repeat for the following molecule: Cc1c(/C=C/C2CCCCC2)nn(-c2ccc(Cl)cc2Cl)c1-c1ccc(Cl)cc1 7.07

Repeat for the following molecule: Cc1c(C(=O)N(C)C2CCCCC2)nn(-c2ccc(Cl)cc2Cl)c1-c1ccc(Cl)cc1 7.27

====

Molecular target: Cannabinoid receptor 1 (Homo sapiens)
Experiment: biochemical
Assay type: cell-based, HEK293
Parameter log10(Ki): see the listing below.
// units: nM (pre-log); metric: Ki; scale: log10

Known log10(Ki) results, listed for orientation:
Cc1c(/C=C/C2CCCCC2)nn(-c2ccc(Cl)cc2Cl)c1-c1ccc(Cl)cc1	1.78
Cc1c(/C=C/N2CCCCC2)nn(-c2ccc(Cl)cc2Cl)c1-c1ccc(Cl)cc1	2.35
Cc1c(C(=O)N(C)C2CCCCC2)nn(-c2ccc(Cl)cc2Cl)c1-c1ccc(Cl)cc1	2.03

// query log10(Ki) value for entry Cc1c(/C=N/N2CCCCC2)nn(-c2ccc(Cl)cc2Cl)c1-c1ccc(Cl)cc1 1.28

Repeat for the following compound: Cc1c(C(=O)NC2CCCCC2)nn(-c2ccc(Cl)cc2Cl)c1-c1ccc(Cl)cc1 0.57

====

Biological target: Cannabinoid receptor 1 (Homo sapiens, UniProt P21554)
Assay: biochemical
Format: cell-based, HEK293
Parameter pKi: see the listing below.
The meaning of pKi here: minus log10 of the concentration in molar units.

Known pKi results, listed for orientation:
Cc1c(C(=O)N(C)C2CCCCC2)nn(-c2ccc(Cl)cc2Cl)c1-c1ccc(Cl)cc1	7.52
Cc1c(C(=O)NC2CCCCC2)nn(-c2ccc(Cl)cc2Cl)c1-c1ccc(Cl)cc1	8.74

What is its pKi for Cannabinoid receptor 1 (Homo sapiens, UniProt P21554)? Entry: Cc1c(/C=N/N2CCCCC2)nn(-c2ccc(Cl)cc2Cl)c1-c1ccc(Cl)cc1 7.77

Repeat for the following compound: Cc1c(/C=C/C2CCCCC2)nn(-c2ccc(Cl)cc2Cl)c1-c1ccc(Cl)cc1 7.50

Repeat for the following compound: Cc1c(/C=C/N2CCCCC2)nn(-c2ccc(Cl)cc2Cl)c1-c1ccc(Cl)cc1 6.67
